Target: Ba/F3 LMNA-NTRK1 G667C cells (Homo sapiens, UniProt P04629, G667C, cells depend on it)
Construct: Ba/F3 LMNA-NTRK1 G667C and Ba/F3 LMNA-NTRK1-V573M are NTRK1 gene mutant cells; fused on or other part: P02545 (Prelamin-A/C)
Sequence (P04629 whole entry G667C, the tested form may be a part): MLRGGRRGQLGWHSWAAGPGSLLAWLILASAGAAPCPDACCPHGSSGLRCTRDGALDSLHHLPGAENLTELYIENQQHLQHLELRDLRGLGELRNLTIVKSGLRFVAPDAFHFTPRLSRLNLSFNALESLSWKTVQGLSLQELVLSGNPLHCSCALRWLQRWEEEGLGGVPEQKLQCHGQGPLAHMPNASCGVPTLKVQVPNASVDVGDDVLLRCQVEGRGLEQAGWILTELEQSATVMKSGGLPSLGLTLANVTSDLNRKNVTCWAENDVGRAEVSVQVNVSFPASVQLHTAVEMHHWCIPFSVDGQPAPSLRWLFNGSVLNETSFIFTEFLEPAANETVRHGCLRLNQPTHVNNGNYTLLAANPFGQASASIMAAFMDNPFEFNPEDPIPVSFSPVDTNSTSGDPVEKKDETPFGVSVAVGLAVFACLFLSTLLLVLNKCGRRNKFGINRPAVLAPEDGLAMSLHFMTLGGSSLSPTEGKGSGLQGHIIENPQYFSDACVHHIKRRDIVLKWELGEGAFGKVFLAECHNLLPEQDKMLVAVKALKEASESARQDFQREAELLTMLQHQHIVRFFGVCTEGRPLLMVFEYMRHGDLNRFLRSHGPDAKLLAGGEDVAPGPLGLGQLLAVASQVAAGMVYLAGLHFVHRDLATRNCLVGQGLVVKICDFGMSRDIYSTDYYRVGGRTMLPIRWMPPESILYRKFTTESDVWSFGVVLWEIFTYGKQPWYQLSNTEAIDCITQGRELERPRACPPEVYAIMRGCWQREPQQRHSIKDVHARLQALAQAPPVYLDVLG
Assay: Cell viability test (CTG), Ba/F3 LMNA-NTRK1 G667C
Format: cell-based
Settings: NTRK1 gene mutant cell, 72 hours, read-out: IC50 Ba/F3 LMNA-NTRK1 G667C
GI50 strictly under 1 nM means true; at 1 nM or over means false.

molecule="COc1cc2nccc(Oc3cnc(NC(=O)c4nn(C5CC5)cc(-c5ccc(F)cc5)c4=O)nc3)c2cc1OC [Compound 33]" label_value=false

For this molecule, is GI50 lower than 1 nM? COc1cc2nccc(Oc3ccc(NC(=O)c4cn(C(C)C)nc(-c5ccc(F)cc5)c4=O)cn3)c2cc1OC [Compound 38] false

In the record for COc1cc2nccc(Oc3ncc(NC(=O)c4cn(C(C)C)nc(-c5ccc(F)cc5)c4=O)cn3)c2cc1OC [Compound 40] , is GI50 less than 1 nM? false

Regarding COc1cc2nccc(Oc3ccc(NC(=O)c4nn(C(C)C)cc(-c5ccc(F)cc5)c4=O)nc3)c2cc1OC [Compound 15] , kindly confirm whether its GI50 is beneath 1 nM. true

A record lists COc1cc2nccc(Oc3ncc(NC(=O)c4nn(C(C)C)cc(-c5ccc(F)cc5)c4=O)cn3)c2cc1OC [Compound 34] . Is its GI50 below 1 nM? true

hey, is GI50 for COc1cc2nccc(Oc3cnc(NC(=O)c4cn(C(C)C)nc(-c5ccc(F)cc5)c4=O)nc3)c2cc1OC [Compound 39] lower than 1 nM or not? false

State whether 1 nM exceeds GI50 recorded for COc1cc2nccc(Oc3ccc(NC(=O)c4nn(C5CC5)cc(-c5ccc(F)cc5)c4=O)nc3)c2cc1OC [Compound 31] . false
